// provenance: ChEMBL document CHEMBL3608251

assayedTarget: Carbonic anhydrase 2 (Homo sapiens, UniProt P00918)
assayProcedure: Inhibition of human recombinant carbonic anhydrase 2 preincubated for 15 mins by stopped flow CO2 hydration method
attributeMeasured: log10 of Ki (log10 of the value in nM)
In our notation, the value equals log10 of Ki in nM.

Completed entries (count: 2):
NS(=O)(=O)c1cc(-c2cnc(C3CC3)o2)cs1: 0.40
Cc1ccc(-c2cnc(C(=O)N3CCOCC3)o2)cc1S(N)(=O)=O: -0.55

// returns reported log10 of Ki for input `Cc1ncc(-c2csc(S(N)(=O)=O)c2)o1`
-2.00

And `COc1ccc(-c2cnc(C3CCC3)o2)cc1S(N)(=O)=O` ?
1.76

Another compound to look at: `NS(=O)(=O)c1ccc(-c2cnc(C(=O)N3CCCC3)o2)cc1`
-2.05

How about this compound: `NS(=O)(=O)c1ccc(-c2cnc(C(=O)N3CCOCC3)o2)cc1`
-2.10

Similarly, `COc1ccc(-c2cnc(C3CC3)o2)cc1S(N)(=O)=O` ?
3.95

Consider next the compound `NS(=O)(=O)c1ccc(-c2cnc(C(=O)N3CCCC3)o2)s1` in the same way.
-2.00

Field entry: `COc1ccc(-c2cnc(C(=O)N3CCOCC3)o2)cc1S(N)(=O)=O`
-1.30

###

List of pKi values.
assayedTarget: Carbonic anhydrase 1 (Homo sapiens)
Sequence (P00915 whole entry): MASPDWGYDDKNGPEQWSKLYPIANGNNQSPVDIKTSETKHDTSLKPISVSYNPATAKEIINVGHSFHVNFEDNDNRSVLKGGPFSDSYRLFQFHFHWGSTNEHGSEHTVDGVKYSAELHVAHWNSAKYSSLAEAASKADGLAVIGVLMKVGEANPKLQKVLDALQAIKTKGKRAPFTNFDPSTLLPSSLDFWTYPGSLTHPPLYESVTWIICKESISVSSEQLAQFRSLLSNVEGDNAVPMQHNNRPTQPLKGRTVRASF
assayProcedure: Inhibition of human recombinant carbonic anhydrase 1 preincubated for 15 mins by stopped flow CO2 hydration method
Remember, pKi is on a log scale: it is -log10 of the molar concentration.

Below, 3 compounds whose answers are already recorded.
NS(=O)(=O)c1ccc(-c2cnc(C(=O)N3CCCC3)o2)cc1: 11.00
Cc1ccc(-c2cnc(C3CCC3)o2)cc1S(N)(=O)=O: 6.64
COc1ccc(-c2cnc(C3CCC3)o2)cc1S(N)(=O)=O: 5.21

// fetch Carbonic anhydrase 1 (Homo sapiens) pKi for `NS(=O)(=O)c1ccc(-c2cnc(C3CCC3)o2)s1`
7.43

What do we get for `Cc1ccc(-c2cnc(C(=O)N3CCCC3)o2)cc1S(N)(=O)=O` ?
8.07

Can you handle `NS(=O)(=O)c1ccc(-c2cnc(C(=O)N3CCOCC3)o2)s1` next?
7.65

Follow-up item: `Cc1ncc(-c2ccc(S(N)(=O)=O)cc2)o1`
7.02

# repeat for `NS(=O)(=O)c1cc(-c2cnc(C3CCC3)o2)cs1`
8.05

What about `Cc1ncc(-c2ccc(S(N)(=O)=O)s2)o1` ?
6.85

###

assayedTarget: Carbonic anhydrase 12 (Homo sapiens, UniProt O43570)
Sequence (O43570 whole entry): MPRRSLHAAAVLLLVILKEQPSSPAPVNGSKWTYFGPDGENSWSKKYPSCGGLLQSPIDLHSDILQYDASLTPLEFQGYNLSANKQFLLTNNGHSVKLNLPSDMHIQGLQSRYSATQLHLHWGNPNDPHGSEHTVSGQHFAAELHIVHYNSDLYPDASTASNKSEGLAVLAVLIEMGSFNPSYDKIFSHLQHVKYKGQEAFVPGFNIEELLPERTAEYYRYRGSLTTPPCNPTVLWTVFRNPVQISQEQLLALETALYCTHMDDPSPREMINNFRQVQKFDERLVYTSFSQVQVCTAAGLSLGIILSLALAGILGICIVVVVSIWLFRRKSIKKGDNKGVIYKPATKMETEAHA
assayProcedure: Inhibition of human recombinant carbonic anhydrase 12 preincubated for 15 mins by stopped flow CO2 hydration method
attributeMeasured: log10 Ki (log10 of the value in nM)
Record value = log10 of Ki given in nM.

Consider the reported log10 Ki for these molecules:
Cc1ncc(-c2csc(S(N)(=O)=O)c2)o1: 0.56
NS(=O)(=O)c1ccc(-c2cnc(C3CCC3)o2)s1: 0.71
NS(=O)(=O)c1ccc(-c2cnc(C(=O)N3CCOCC3)o2)cc1: 0.84
COc1ccc(-c2cnc(C3CC3)o2)cc1S(N)(=O)=O: 3.90

Which value of log10 Ki has been reported for `NS(=O)(=O)c1cc(-c2cnc(C(=O)N3CCCC3)o2)cs1` in the records?
1.81

###

Collected Ki values appear next to each entry.
assayedTarget: UniProtKB P00918
assayProcedure: Inhibition of human recombinant carbonic anhydrase 2 preincubated for 15 mins by stopped flow CO2 hydration method
Record the value in nM, omitting the unit from your answer.

// below: answered compounds
NS(=O)(=O)c1cc(-c2cnc(C(=O)N3CCOCC3)o2)cs1: 0.03
Cc1ncc(-c2ccc(S(N)(=O)=O)s2)o1: 6.3
Cc1ccc(-c2cnc(C(=O)N3CCCC3)o2)cc1S(N)(=O)=O: 0.01
NS(=O)(=O)c1ccc(-c2cnc(C3CC3)o2)cc1: 0.01

Value wanted: Ki (UniProtKB P00918) of entry `NS(=O)(=O)c1ccc(-c2cnc(C3CCC3)o2)s1`
0.01

And `NS(=O)(=O)c1ccc(-c2cnc(C3CC3)o2)s1` ?
4.8

// same read-out, input: `Cc1ccc(-c2cnc(C3CCC3)o2)cc1S(N)(=O)=O`
283

`NS(=O)(=O)c1cc(-c2cnc(C3CCC3)o2)cs1` ?
0.01

// next record `NS(=O)(=O)c1ccc(-c2cnc(C3CCC3)o2)cc1`
0.02
